Origin of measurements: patent US6414113B1

Tested on: T1, soluble human bone marrow stromal cell antigen-1 (BST-1) (human, UniProt Q10588 33-297)
T1 construct: range 1-297; Expressed with baculovirus in High five insect cells, purified to 95% or more; The construct encodes codons 1-297; also called purified BST-1; soluble BST-1
T1 sequence (looked up): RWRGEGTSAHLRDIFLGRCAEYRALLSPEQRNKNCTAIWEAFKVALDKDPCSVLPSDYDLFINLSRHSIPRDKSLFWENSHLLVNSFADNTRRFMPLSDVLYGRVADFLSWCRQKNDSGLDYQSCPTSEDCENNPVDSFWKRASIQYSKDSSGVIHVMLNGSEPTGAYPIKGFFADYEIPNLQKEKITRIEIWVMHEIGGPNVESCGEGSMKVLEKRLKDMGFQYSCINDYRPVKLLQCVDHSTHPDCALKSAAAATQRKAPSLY
Assay protocol: Biacore SPR, BST-1 amine-coupled on CM5, equilibrium values at 400-2000 nM peptide, Scatchard plot
Where no end group is shown, it is not given here. The star is where a group is joined. Biotin = O=C1N[C@H]2[C@H](CS[C@H]2CCCCC(=O)*)N1
// values below are reported Kd

HSQISGKYQRYLKDAK(Biotin) [SNPb-1 (SNP-1 with an additional C-terminal Lys carrying biotin)] = 810 nM
HSQISGKYQRYLKDA (15-residue synthetic peptide, purity 95% or more; also called prototype SNP-1; original SNP-1) [synthetic peptide SNP-1] = 510 nM

# next binder below
Need Kd of {Sulfo‑NHS‑LC‑Biotin}-HSQISGKYQRYLKDA [bSNP-1 (SNP-1 biotinylated at the N-terminal)] , thanks.
530 nM
